Test system: murine gastric organoid diffuse (Cdh1 fl/fl; Apc fl/fl)
Assay: IC50 (viability, PrestoBlue) (log10 nM)
Details: exposure time: 72 h

molecule	inequalitySign	IC50 (log10 nM)
C1=N/C2=N/c3ccc(OCCN4CCCC4)c(c3)COC/C=C/COCc3cccc(c3)C(=C1)N2	=	3.48
C[C@]1(O)C[C@@H](c2nc(-c3ccc4ccc(-c5ccccc5)nc4c3)c3c(N)nccn32)C1	=	3.68
CN(C)C/C=C/C(=O)Nc1cc2c(Nc3ccc(F)c(Cl)c3)ncnc2cc1O[C@H]1CCOC1	=	1.95
CC1=C(/C=C/C(C)=C/C=C/C(C)=C/C(=O)O)C(C)(C)CCC1	>	4.4
Nc1nc(=S)c2[nH]cnc2[nH]1	=	4.29
CN(C)c1ccccc1CN1CCCN(Cc2ccccc2N(C)C)C1c1ccncc1	=	2.53
CNC(=O)c1ccccc1Sc1ccc2c(/C=C/c3ccccn3)n[nH]c2c1	=	3.78
COc1cc([C@@H]2c3cc4c(cc3[C@@H](O[C@@H]3O[C@@H]5CO[C@@H](C)O[C@H]5[C@H](O)[C@H]3O)[C@H]3COC(=O)[C@H]23)OCO4)cc(OC)c1O [Etoposide]	=	3.06

The measured values listed here are drawn from the supplement of paper PMC9549728.
